In this section, each of the compounds is paired with its reported Selectivity Index.
experiment: Selectivity index, CC50 for african green monkey Vero cells to IC50 for Trypanosoma cruzi 320I01 amastigotes; type: functional

>  <compound>
Fc1cccc(Cl)c1[C@@H]1C[C@@H]2Cc3ccccc3N1O2 (relative stereo)

>  <Selectivity Index>
>3

$$$$
>  <compound>
Cc1ccc2c(c1)C[C@H]1C[C@@H](c3ccccc3Cl)N2O1 (relative stereo)

>  <Selectivity Index>
0.96

$$$$
>  <compound>
Cc1ccc2c(c1)C[C@@H](O)C[C@@H](c1ccccc1Cl)N2 (relative stereo)

>  <Selectivity Index>
1.8

$$$$

Proceeding to the next compound to report its Selectivity Index.
Request: What Selectivity Index value was documented for this compound, O[C@@H]1Cc2ccccc2N[C@H](c2c(Cl)cccc2Cl)C1 (relative stereo) ?
Response: >4

----------
In this section, each of the molecules is paired with its reported Selectivity Index.
test: Selectivity index, CC50 for human THP1 cells to IC50 for Leishmania chagasi MHOM/BR/74/PP75 amastigotes; format: functional, THP-1

Example entries begin here.
>  <molecule>
Clc1ccc2c(c1)C[C@H]1C[C@@H](c3c(Cl)cccc3Cl)N2O1 (relative stereo)

>  <Selectivity Index>
>3

$$$$
>  <molecule>
O[C@@H]1Cc2ccccc2N[C@H](c2ccccc2)C1 (relative stereo)

>  <Selectivity Index>
>3

$$$$
>  <molecule>
O[C@@H]1Cc2cc(Cl)ccc2N[C@H](c2ccc(Cl)cc2)C1 (relative stereo)

>  <Selectivity Index>
>0.49

$$$$
>  <molecule>
O[C@@H]1Cc2ccccc2N[C@H](c2cccc(Cl)c2)C1 (relative stereo)

>  <Selectivity Index>
>1

$$$$
>  <molecule>
Fc1ccccc1[C@@H]1C[C@@H]2Cc3ccccc3N1O2 (relative stereo)

>  <Selectivity Index>
>2

$$$$
>  <molecule>
Clc1cccc([C@@H]2C[C@@H]3Cc4ccccc4N2O3)c1 (relative stereo)

>  <Selectivity Index>
>1

$$$$
>  <molecule>
O[C@@H]1Cc2cc(Cl)ccc2N[C@H](c2c(F)cccc2Cl)C1 (relative stereo)

>  <Selectivity Index>
>1

$$$$

Proceeding to the next molecule to report its Selectivity Index.
Request: What Selectivity Index value was documented for this molecule, O[C@@H]1Cc2cc(Cl)ccc2N[C@H](c2ccc(Br)cc2)C1 (relative stereo) ?
Response: >1.61

----------
test system: Trypanosoma cruzi; test: Antitrypanosomal activity against Trypanosoma cruzi 320I01 amastigotes infected in african green monkey Vero cells after 5 days by Giemsa staining; type: functional, organism-based; details: 320I01, Vero, 120 h
value.kind: IC90

Example entries begin here.
>  <compound>
c1ccc([C@@H]2C[C@@H]3Cc4ccccc4N2O3)cc1 (relative stereo)

>  <assay.result>
> 100 µM

$$$$
>  <compound>
Fc1ccc2c(c1)C[C@H]1C[C@@H](c3ccccc3)N2O1 (relative stereo)

>  <assay.result>
> 100 µM

$$$$
>  <compound>
Clc1ccc2c(c1)C[C@H]1C[C@@H](c3ccc(Br)cc3)N2O1 (relative stereo)

>  <assay.result>
> 95.4 µM

$$$$
>  <compound>
O[C@@H]1Cc2cc(Cl)ccc2N[C@H](c2ccccc2Cl)C1 (relative stereo)

>  <assay.result>
> 36.1 µM

$$$$
>  <compound>
Clc1cccc(Cl)c1[C@@H]1C[C@@H]2Cc3ccccc3N1O2 (relative stereo)

>  <assay.result>
> 100 µM

$$$$

Request: What IC90 value was documented for this compound, O[C@@H]1Cc2cc(Cl)ccc2N[C@H](c2c(F)cccc2Cl)C1 (relative stereo) ?
Response: > 34.1 µM

Request: What IC90 value was documented for this compound, O[C@@H]1Cc2cc(Cl)ccc2N[C@H](c2c(Cl)cccc2Cl)C1 (relative stereo) ?
Response: > 32.5 µM

Request: What IC90 value was documented for this compound, Cc1cccc([C@@H]2C[C@H](O)Cc3ccccc3N2)c1 (relative stereo) ?
Response: > 100 µM

Request: What IC90 value was documented for this compound, O[C@@H]1Cc2ccccc2N[C@H](c2c(F)cccc2Cl)C1 (relative stereo) ?
Response: > 100 µM

Request: What IC90 value was documented for this compound, O[C@@H]1Cc2ccccc2N[C@H](c2cccc(Cl)c2)C1 (relative stereo) ?
Response: > 100 µM

Sourced from ChEMBL document CHEMBL1177650
